Recorded values, source patent US8859535B2.

experimental_system: human MDM2 protein (amino acids 2-188) (Homo sapiens)
Construct: human MDM2 protein (amino acids 2-188); made in house
measurement_protocol: p53-MDM2 TR-FRET assay, modified (p53-MDM2 Assay 2)
Assay type: binding
run_conditions: 0.1 nM MDM2, 0.1 nM Europium labeled streptavidin; read-out: IC50 (nM) of p53-Hdm2 inhibition (TR-FRET) Assay 2
Here the recorded IC50 is given for each entry.
Only the number, expressed in nM, is required.

COc1cc2c(cc1OC(C)C)[C@H](c1ccc(Cl)cc1)N(c1ccc(C(C)(O)C3CCN(CCO)CC3)cc1)C(=O)C2 (some centres unmarked)    2.3
COc1cc2c(cc1OC(C)C)[C@H](c1ccc(Cl)cc1)N(c1ccc([C@@](C)(O)C3CCN(CCO)CC3)cc1)C(=O)C2 (single isomer, unassigned)    1.42
CC(C)Oc1cc2c(cc1OC(F)F)CC(=O)N(c1ccc(C(C)(O)C3CCOCC3)cc1)C2c1ccc(Cl)cc1 (centres unmarked)    12

Exam item: I'd like to know its IC50. The compound in question is COc1cc2c(cc1OC(C)C)[C@H](c1ccc(Cl)cc1)N(c1ccc(C(C)(O)C3CCN(C(=O)CO)CC3)cc1)C(=O)C2 (mixture of isomers)
Marked response: 1.84

Exam item: Similarly, COc1cc2c(cc1OC(C)C)[C@H](c1ccc(Cl)cc1)N(c1ccc(C(C)(O)C3CC4CCCC(C3)O4)cc1)C(=O)C2 (some centres unmarked) ?
Marked response: 3.72

Exam item: Proceed to COc1cc2c(cc1OC(C)C)[C@H](c1ccc(Cl)cc1)N(c1ccc(C(C)(O)C3CC4CCC(C3)O4)cc1)C(=O)C2 (mixture of isomers)
Marked response: 1.2

Exam item: Follow-up item: COc1cc2c(cc1OC(C)C)[C@H](c1ccc(Cl)cc1)N(c1ccc(C(C)(O)C3CC4CCC(C3)N4C(=O)N(C)C)cc1)C(=O)C2 (some centres unmarked)
Marked response: 2.07

----------
experimental_system: human MDM2 protein (amino acids 2-188) (Homo sapiens, UniProt Q00987)
Construct: human MDM2 protein (amino acids 2-188); made in house
Sequence (Q00987 2-188): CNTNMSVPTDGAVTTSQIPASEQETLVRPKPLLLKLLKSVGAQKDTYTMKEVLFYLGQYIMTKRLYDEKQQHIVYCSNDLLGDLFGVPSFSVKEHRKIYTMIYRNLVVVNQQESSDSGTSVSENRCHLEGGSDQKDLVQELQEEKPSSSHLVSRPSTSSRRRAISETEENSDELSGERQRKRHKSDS
measurement_protocol: p53-MDM2 TR-FRET assay, modified (p53-MDM2 Assay 2)
Type: binding
run_conditions: 0.1 nM MDM2, 0.1 nM Europium labeled streptavidin; read-out: IC50 (nM) of p53-Hdm2 inhibition (TR-FRET) Assay 2
Field: label. Allowed values: 1 (IC50 < 2 nM) or 0 (IC50 >= 2 nM).

Sample answers from the record:
COc1cc2c(cc1OC(C)C)[C@H](c1ccc(Cl)cc1)N(c1ccc(C(C)(O)C3CC4CCC(C3)N4CCO)cc1)C(=O)C2 (stereo partly shown)    0
COc1cc2c(cc1OC(C)C)[C@H](c1ccc(Cl)cc1)N(c1ccc(C(C)(O)C3CC4CCC(C3)N4S(C)(=O)=O)cc1)C(=O)C2 (stereo partly shown)    1
COc1cc2c(cc1OC(C)C)[C@H](c1ccc(Cl)cc1)N(c1ccc([C@](C)(O)C3CCN(C4COC4)CC3)cc1)C(=O)C2 (single isomer, unassigned)    0

Exam item: IC50 strictly < 2 nM for this compound? COc1cc2c(cc1OC(C)C)[C@H](c1ccc(Cl)cc1)N(c1ccc(C(C)(O)C3CCN(C4CCC4)CC3)cc1)C(=O)C2 (stereo partly shown)
Marked response: 0

Exam item: And for COc1cc2c(cc1OC(C)C)[C@H](c1ccc(Cl)cc1)N(c1ccc(C(C)(O)C3CCN(C(=O)COC(C)=O)CC3)cc1)C(=O)C2 (mixture of isomers) ?
Marked response: 1

Exam item: Also, COc1cc2c(cc1OC(C)C)[C@H](c1ccc(Cl)cc1)N(c1ccc([C@@](C)(O)C34CCC(CC3)C4)cc1)C(=O)C2 (single isomer, unassigned) please.
Marked response: 0

Exam item: Another compound to check: [2H]C([2H])([2H])Oc1cc2c(cc1OC(C)C)[C@H](c1ccc(Cl)cc1)N(c1ccc(C(C)(O)C3CCN(C=O)CC3)cc1)C(=O)C2 (stereo partly shown)
Marked response: 0

----------
experimental_system: human MDM2 protein (amino acids 2-188) (Homo sapiens)
Construct: human MDM2 protein (amino acids 2-188); made in house
measurement_protocol: p53-MDM2 TR-FRET assay, modified (p53-MDM2 Assay 2)
Type: binding
run_conditions: 0.1 nM MDM2, 0.1 nM Europium labeled streptavidin; read-out: IC50 (nM) of p53-Hdm2 inhibition (TR-FRET) Assay 2
Let's look at some compounds and their measured IC50.
Numbers only; they are read as nM.

COc1cc2c(cc1OC(C)C)[C@H](c1ccc(Cl)cc1)N(c1ccc(C(C)(O)C3CN(C4COC4)C3)cc1)C(=O)C2 (stereo partly drawn) [Example 103]    9.18
CNC(=O)N1C2CCCC1CC(C(C)(O)c1ccc(N3C(=O)Cc4cc(OC)c(OC(C)C)cc4[C@@H]3c3ccc(Cl)cc3)cc1)C2 (stereo partly drawn) [Example 119]    1.47
COc1cc2c(cc1OC(C)C)[C@H](c1ccc(Cl)cc1)N(c1ccc([C@@](C)(O)C3CCS(=O)(=O)CC3)cc1)C(=O)C2 [Example 168]    1.25
COc1cc2c(cc1OC(C)C)[C@H](c1ccc(Cl)cc1)N(c1ccc(C(C)(O)C3CC4CCCC(C3)N4)cc1)C(=O)C2 (stereo partly drawn) [Example 116]    3.4
COc1cc2c(cc1OC(C)C)[C@H](c1ccc(Cl)cc1)N(c1ccc([C@](C)(O)C3CC(C)(C)OC(C)(C)C3)cc1)C(=O)C2 (single isomer, unassigned) [Example 164]    509

Exam item: Given the compound COc1cc2c(cc1OC(C)C)[C@H](c1ccc(Cl)cc1)N(c1ccc([C@](C)(O)C3CCN(C(=O)CO)CC3)cc1)C(=O)C2 (single isomer, unassigned) [Example 134] , what is its reported IC50?
Marked response: 141

----------
experimental_system: human MDM2 protein (amino acids 2-188) (Homo sapiens)
Construct: human MDM2 protein (amino acids 2-188); made in house
measurement_protocol: p53-MDM2 TR-FRET assay (p53-MDM2 Assay 1)
Type: binding
run_conditions: 1.25 nM MDM2-biotinylated, 10 nM Cy5-p53 peptide; read-out: IC50 (μM) of p53-Hdm2 inhibition (TR-FRET) Assay 1
Experimental: Time Resolved Fluorescence Energy Transfer (TR-FRET) Assay The inhibition of p53-MDM2 and p53-MDM4 interactions is measured by time resolved fluorescence energy transfer (TR-FRET). Fluorescence energy transfer (or Foerster resonance energy transfer) describes an energy transfer between donor and acceptor fluorescent molecules. […]
measurement_name: IC50 (µM)
Please state the figure in µM; there is no need to write the unit.

Examples with their reported IC50 follow.
COc1cc2c(cc1OC(C)C)[C@H](c1ccc(Cl)cc1)N(c1ccc(C(C)(O)C3CCN(C(N)=O)CC3)cc1)C(=O)C2 (stereo partly shown) [Example 75]    0.0043
COc1cc2c(cc1OC(C)C)[C@H](c1ccc(Cl)cc1)N(c1ccc(C(C)(O)c3cccnc3)cc1)C(=O)C2 (stereo partly shown) [Example 16]    0.0058
COc1cc2c(cc1OC(C)C)[C@H](c1ccc(Cl)cc1)N(c1ccc(C(C)(O)c3cccnc3)cc1F)C(=O)C2 (stereo partly shown) [Example 20]    0.0723
COc1cc2c(cc1OC(C)C)[C@H](c1ccc(Cl)cc1)N(c1ccc(C(C)(O)c3ccncc3)cn1)C(=O)C2 (stereo partly shown) [Example 12]    0.0195
COc1cc2c(cc1OC(C)C)[C@H](c1ccc(Cl)cc1)N(c1ccc(C(C)(O)c3cn(C)cn3)cc1)C(=O)C2 (stereo partly shown) [Example 13]    0.0608

Exam item: What measured IC50 goes with COc1cc2c(cc1OC(C)C)[C@H](c1ccc(Cl)cc1)N(c1ccc([C@](C)(O)C3CCC(F)(F)CC3)cc1)C(=O)C2 (single isomer, unassigned) [Example 46] ?
Marked response: 0.422

Exam item: Thanks! And COc1cc2c(cc1OC(C)C)[C@H](c1ccc(Cl)cc1)N(c1ccc(C3(O)CNC3)cc1)C(=O)C2 [Example 56] ?
Marked response: 0.811

Exam item: And COc1cc2c(cc1OC(C)C)[C@H](c1ccc(Cl)cc1)N(c1ccc(C(C)(O)C3CC4CCC(C3)N4C=O)cc1)C(=O)C2 (stereo partly shown) [Example 111] ?
Marked response: 0.0021

Exam item: Same question for CCC(C)(O)c1ccc(N2C(=O)Cc3cc(OC)c(OC(C)C)cc3[C@@H]2c2ccc(Cl)cc2)cn1 (stereo partly shown) [Example 9] please.
Marked response: 0.459

Exam item: Moving on to the next compound: COc1cc2c(cc1OC(C)C)[C@H](c1ccc(Cl)cc1)N(c1ccc(C(C)(O)C3CCN(C(=O)CO)CC3)cc1)C(=O)C2 (mixture of isomers) [Example 92]
Marked response: 0.0036

Exam item: Continue with COc1cc2c(cc1OC(C)C)[C@H](c1ccc(Cl)cc1)N(c1ccc(C(C)(O)C3CCN(C(=O)C(F)F)CC3)cc1)C(=O)C2 (stereo partly shown) [Example 87]
Marked response: 0.0287

Exam item: Then COc1cc2c(cc1OC(C)C)[C@H](c1ccc(Cl)cc1)N(c1ccc(C(C)(O)C3CN(C)C3)cc1)C(=O)C2 (stereo partly shown) [Example 70] ?
Marked response: 0.0547

Exam item: Try COc1cc(OC)cc(C(C)(O)c2ccc(N3C(=O)Cc4cc(OC)c(OC(C)C)cc4[C@@H]3c3ccc(Cl)cc3)cc2)c1 (stereo partly shown) [Example 22] next.
Marked response: 0.0225

Exam item: Field entry: COc1cc2c(cc1OC(C)C)[C@H](c1ccc(Cl)cc1)N(c1ccc(C3(O)CN(S(C)(=O)=O)C3)cc1)C(=O)C2 [Example 62]
Marked response: 0.342

Exam item: Again, but for COc1cc2c(cc1OC(C)C)[C@H](c1ccc(Cl)cc1)N(c1ccc(C(C)(O)C3CC4CCC(C3)N4CC(F)(F)F)cc1)C(=O)C2 (stereo partly shown) [Example 106]
Marked response: 0.0049

Exam item: Then CNC(=O)N1CCC(C(C)(O)c2ccc(N3C(=O)Cc4cc(OC)c(OC(C)C)cc4[C@@H]3c3ccc(Cl)cc3)cc2)CC1 (stereo partly shown) [Example 79] ?
Marked response: 0.0052

Exam item: Would you mind doing COc1cc2c(cc1OC(C)C)[C@H](c1ccc(Cl)cc1)N(c1ccc(C(C)(O)C3CC4CCC(C3)N4C3COC3)cc1)C(=O)C2 (stereo partly shown) [Example 115] as well?
Marked response: 0.0051

Exam item: Cool, now CNC(=O)N1C2CCC1CC(C(C)(O)c1ccc(N3C(=O)Cc4cc(OC)c(OC(C)C)cc4[C@@H]3c3ccc(Cl)cc3)cc1)C2 (stereo partly shown) [Example 109]
Marked response: 0.0024

Exam item: Input COc1cc2c(cc1OC(C)C)[C@H](c1ccc(Cl)cc1)N(c1ccc(C3(O)CN(C(=O)OC(C)(C)C)C3)cc1)C(=O)C2 [Example 55]
Marked response: 0.0926
